The reported numbers originate from the supplement of paper PMC6555819.

Reported values of PBM binding z-score for individual entries
test system: PPARg DBDmut IVT, anti-PPARg (DBD mutation: PPARg1 K132A/R137A, NR concentration 270 nM); assay: PBM binding z-score (relative to random genomic background probes); higher = stronger binding; sequences stand for … in GC…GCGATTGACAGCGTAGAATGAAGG
Write no unit; give the number alone.

TCATATAAGTAATACAGGTGAAAGTCGGCATCTA    0.83

Proceed to the following item.
Entry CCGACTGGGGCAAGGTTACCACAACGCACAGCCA — recorded PBM binding z-score = -0.719

* * *

tested on: PPARg:RXRa 30nM:10nM, anti-RXR (NR concentration 30 nM, RXRa partner concentration 10 nM); test: PBM binding z-score (relative to random genomic background probes); higher = stronger binding; sequences stand for … in GC…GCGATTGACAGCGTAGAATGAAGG
Reported values of PBM binding z-score for individual entries
Write no unit; give the number alone.

Entry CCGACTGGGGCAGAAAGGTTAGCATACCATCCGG — recorded PBM binding z-score = -0.0378

Entry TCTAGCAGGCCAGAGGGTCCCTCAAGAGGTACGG — recorded PBM binding z-score = 1.15

Entry TCAGACAGGTGAAGGTAACTCTGGTACGCAGTCG — recorded PBM binding z-score = 3.66

Entry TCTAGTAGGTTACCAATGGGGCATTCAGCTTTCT — recorded PBM binding z-score = 3.2

Entry TAGCCTAGGTCAGATCGCGCCAGTATACGCTATA — recorded PBM binding z-score = 0.125

Entry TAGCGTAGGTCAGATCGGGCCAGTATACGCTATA — recorded PBM binding z-score = 0.0137

Entry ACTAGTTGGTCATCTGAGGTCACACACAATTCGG — recorded PBM binding z-score = 1.13

Entry TCTTGTAGATCAAAGGTTAAGAACGCCGAAGCCT — recorded PBM binding z-score = 7.43

Entry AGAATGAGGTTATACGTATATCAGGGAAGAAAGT — recorded PBM binding z-score = 1.04

Entry CCGACTGGGGCAAGGTTAACATAACGCACAGCCA — recorded PBM binding z-score = 2.68

Entry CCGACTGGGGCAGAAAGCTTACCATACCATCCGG — recorded PBM binding z-score = -0.693

Entry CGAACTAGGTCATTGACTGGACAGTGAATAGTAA — recorded PBM binding z-score = 3.34

* * *

tested on: RARg:RXRa (NR concentration 270 nM, RXRa partner concentration 90 nM); test: PBM binding z-score (relative to random genomic background probes); higher = stronger binding; sequences stand for … in GC…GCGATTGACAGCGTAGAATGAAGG
Binary classification by PBM binding z-score, with 1 as an inclusive lower bound for T; all other cases are F.

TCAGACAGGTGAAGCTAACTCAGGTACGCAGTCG    F

### Prompt Is reported PBM binding z-score greater than or equal to 1 here: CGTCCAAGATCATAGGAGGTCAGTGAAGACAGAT
### Response T

### Prompt Is reported PBM binding z-score greater than or equal to 1 here: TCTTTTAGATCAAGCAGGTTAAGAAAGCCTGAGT
### Response F

### Prompt Is reported PBM binding z-score greater than or equal to 1 here: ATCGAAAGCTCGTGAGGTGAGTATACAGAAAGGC
### Response F

### Prompt Is reported PBM binding z-score greater than or equal to 1 here: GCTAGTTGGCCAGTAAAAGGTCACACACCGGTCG
### Response T

### Prompt Is reported PBM binding z-score greater than or equal to 1 here: TCTCGGAGGACACGAAGGTCAGAGCATTCCAGAG
### Response T
